tested on: LXRb homodimer (NR concentration 270 nM); assay: PBM binding z-score (relative to random genomic background probes); higher = stronger binding; sequences stand for … in GC…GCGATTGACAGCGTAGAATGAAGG
endpoint: PBM binding z-score
One number for each entry.

The cases that follow already have their PBM binding z-score on record.
{"monomer-sequence": "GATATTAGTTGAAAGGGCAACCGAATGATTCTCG", "target-or-system": "LXRb homodimer (NR concentration 270 nM)", "PBM binding z-score": 0.285}
{"monomer-sequence": "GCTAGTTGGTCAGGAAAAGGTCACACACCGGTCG", "target-or-system": "LXRb homodimer (NR concentration 270 nM)", "PBM binding z-score": 0.375}
{"monomer-sequence": "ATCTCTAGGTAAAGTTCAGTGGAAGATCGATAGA", "target-or-system": "LXRb homodimer (NR concentration 270 nM)", "PBM binding z-score": 1.27}
{"monomer-sequence": "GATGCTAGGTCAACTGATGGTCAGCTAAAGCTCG", "target-or-system": "LXRb homodimer (NR concentration 270 nM)", "PBM binding z-score": 0.0631}
{"monomer-sequence": "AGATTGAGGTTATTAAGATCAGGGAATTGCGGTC", "target-or-system": "LXRb homodimer (NR concentration 270 nM)", "PBM binding z-score": 0.271}

Batch lookup, PBM binding z-score per entry.
1. ACTAGTTGGTCAGCAGAGGTCACACACAATTCGG
2. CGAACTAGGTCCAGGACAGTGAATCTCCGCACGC

1. 1.39
2. -0.661

----------
test system: RARb homodimer (NR concentration 270 nM); test: PBM binding z-score (relative to random genomic background probes); higher = stronger binding; sequences stand for … in GC…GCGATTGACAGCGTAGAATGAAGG
Decision: PBM binding z-score >= 2 yields Fulfilled, all other cases yield Not fulfilled.

Solved entries (count: 2):
{"monomer-sequence": "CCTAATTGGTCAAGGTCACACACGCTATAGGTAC", "assigned-class": "Fulfilled"}
{"monomer-sequence": "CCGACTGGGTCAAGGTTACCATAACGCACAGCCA", "assigned-class": "Fulfilled"}

Answer whether PBM binding z-score of `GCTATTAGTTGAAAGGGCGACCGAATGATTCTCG` is greater than or equal to 2.
Not fulfilled

Answer whether PBM binding z-score of `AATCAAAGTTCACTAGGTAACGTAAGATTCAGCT` is greater than or equal to 2.
Fulfilled

Answer whether PBM binding z-score of `CTCGAAAGGTCGGTTGACGTGAGTATACGGATAA` is greater than or equal to 2.
Not fulfilled

Answer whether PBM binding z-score of `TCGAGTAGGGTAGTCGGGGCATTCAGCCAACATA` is greater than or equal to 2.
Not fulfilled

Answer whether PBM binding z-score of `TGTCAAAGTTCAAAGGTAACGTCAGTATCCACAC` is greater than or equal to 2.
Fulfilled

Answer whether PBM binding z-score of `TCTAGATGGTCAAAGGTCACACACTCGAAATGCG` is greater than or equal to 2.
Fulfilled

Answer whether PBM binding z-score of `CGAACTAGGTCATTGACAGGAAAGTGAATAGTAA` is greater than or equal to 2.
Fulfilled

Answer whether PBM binding z-score of `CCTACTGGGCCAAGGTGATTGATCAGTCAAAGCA` is greater than or equal to 2.
Not fulfilled

Answer whether PBM binding z-score of `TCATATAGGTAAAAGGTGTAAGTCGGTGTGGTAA` is greater than or equal to 2.
Not fulfilled

Answer whether PBM binding z-score of `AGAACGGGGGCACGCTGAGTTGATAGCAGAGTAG` is greater than or equal to 2.
Not fulfilled
